Origin of the recorded values: the supplement of paper PMC10307832

Tested on: LCLC-97TM1
Experiment: relative viability (nuclei count vs DMSO), 5 days (fraction); higher = more cells survive
Conditions: first compound 20 µM
The entries below come with measured relative viability values attached.

>  <COMPOUND>
Cc1csc(=NC2CCCCC2)n1/N=C/c1ccc(O)c(O)c1O [MIM1] + Nc1ncn([C@H]2C[C@H](O)[C@@H](CO)O2)c(=O)n1 [Decitabine] (partner 2 µM)

>  <EXPERIMENTAL SYSTEM>
LCLC-97TM1

>  <relative viability>
0.0699

$$$$
>  <COMPOUND>
Cc1csc(=NC2CCCCC2)n1/N=C/c1ccc(O)c(O)c1O [MIM1] + Nc1nc2[nH]cc(CCc3ccc(C(=O)N[C@@H](CCC(=O)O)C(=O)O)cc3)c2c(=O)[nH]1 [Pemetrexed] (partner 0.2 µM)

>  <EXPERIMENTAL SYSTEM>
LCLC-97TM1

>  <relative viability>
0.054

$$$$
>  <COMPOUND>
Cc1csc(=NC2CCCCC2)n1/N=C/c1ccc(O)c(O)c1O [MIM1] + Cc1nc(Nc2ncc(C(=O)Nc3c(C)cccc3Cl)s2)cc(N2CCN(CCO)CC2)n1 [Dasatinib] (partner 0.075 µM)

>  <EXPERIMENTAL SYSTEM>
LCLC-97TM1

>  <relative viability>
0.431

$$$$
>  <COMPOUND>
Cc1csc(=NC2CCCCC2)n1/N=C/c1ccc(O)c(O)c1O [MIM1] + CS(=O)(=O)N1CCN(Cc2cc3nc(-c4cccc5[nH]ncc45)nc(N4CCOCC4)c3s2)CC1 [Pictilisib] (partner 1 µM)

>  <EXPERIMENTAL SYSTEM>
LCLC-97TM1

>  <relative viability>
0.108

$$$$
>  <COMPOUND>
Cc1csc(=NC2CCCCC2)n1/N=C/c1ccc(O)c(O)c1O [MIM1] + CC(C)C[C@H](NC(=O)[C@H](Cc1ccccc1)NC(=O)c1cnccn1)B(O)O [Bortezomib] (partner 0.002 µM)

>  <EXPERIMENTAL SYSTEM>
LCLC-97TM1

>  <relative viability>
0.0592

$$$$
>  <COMPOUND>
Cc1csc(=NC2CCCCC2)n1/N=C/c1ccc(O)c(O)c1O [MIM1] + C[C@@H](Oc1cc(-c2cnn(C3CCNCC3)c2)cnc1N)c1c(Cl)ccc(F)c1Cl [Crizotinib] (partner 1 µM)

>  <EXPERIMENTAL SYSTEM>
LCLC-97TM1

>  <relative viability>
0.12

$$$$
>  <COMPOUND>
Cc1csc(=NC2CCCCC2)n1/N=C/c1ccc(O)c(O)c1O [MIM1] + Cc1nc(NC(=O)N2CCC[C@H]2C(N)=O)sc1-c1ccnc(C(C)(C)C(F)(F)F)c1 [Alpelisib] (partner 2 µM)

>  <EXPERIMENTAL SYSTEM>
LCLC-97TM1

>  <relative viability>
0.129

$$$$
>  <COMPOUND>
Cc1csc(=NC2CCCCC2)n1/N=C/c1ccc(O)c(O)c1O [MIM1] + CS(=O)(=O)CCNCc1ccc(-c2ccc3ncnc(Nc4ccc(OCc5cccc(F)c5)c(Cl)c4)c3c2)o1 [Lapatinib] (partner 2 µM)

>  <EXPERIMENTAL SYSTEM>
LCLC-97TM1

>  <relative viability>
0.128

$$$$
